# System: Wolbachia pipientis
# Procedure text: Anti-Wolbachia Cell-Based Screen
# Type: functional
# Parameters: scale not given: in the data most compounds retested in dose-response had high values
# Experimental conditions: 5 µM
Screen size: about 48,000 compounds; about 13,000 (27%) showed an effect of 50% or more. This is one part of the list.

| Compound | Target entity | Percent Effect [%] |
| --- | --- | --- |
| COc1ncccc1CNC(=O)c1csc(Br)c1 | Wolbachia pipientis | -3.895 |
| CC1CCC(O)(CN2CCN(CCNC(=O)C3CCC3)CC2)CC1 (stereo unspecified) | Wolbachia pipientis | 8.242 |
| COCc1csc(NC(=O)NCc2ccsc2)n1 | Wolbachia pipientis | -7.736 |
| CCN(CC)C1(Cc2cc(COC)on2)COC1 | Wolbachia pipientis | -6.864 |
| CN1CCC(CCNC(=O)c2ccc(N(C)S(C)(=O)=O)cc2Cl)CC1 | Wolbachia pipientis | -5.905 |
| O=C1CCN(C(=O)C2(c3ccc(F)cc3)CCCCC2)CCN1 | Wolbachia pipientis | -15.47 |
| Cc1cnn(C2CN(Cc3nc(-c4ccccc4C)no3)C2)c1 | Wolbachia pipientis | 81.63 |
| c1ccc(-c2nc(CCNc3nnc(C4CCC4)o3)no2)cc1 | Wolbachia pipientis | -25.81 |
| Cc1ccc(-c2ncc(CNc3cnccc3CO)s2)cc1 | Wolbachia pipientis | -6.325 |
| O=C(CN1C(=O)CCC1=O)N1CCOCC1 | Wolbachia pipientis | -0.7877 |
| Cc1[nH]c2ccccc2c1CCNC(=O)N1CCC2(C1)OCCO2 | Wolbachia pipientis | 5.663 |
| Cc1cnccc1N1CCCN(C(=O)CCCS(N)(=O)=O)CC1 | Wolbachia pipientis | 5.967 |
| Cc1nc(CNC(C)c2ccc(S(=O)(=O)N(C)C)cc2)no1 (stereo unspecified) | Wolbachia pipientis | -3.104 |
| Cc1cc(C)n(CC(C)CNC(=O)N(C)Cc2cc(C)on2)n1 (stereo unspecified) | Wolbachia pipientis | 9.156 |
| Cc1cccc(SC2CCN(C(=O)CCCS(N)(=O)=O)CC2)c1 | Wolbachia pipientis | 79.05 |
| Cc1nc(CN(C)Cc2nc(-c3ccncc3)no2)co1 | Wolbachia pipientis | -11.37 |
| Cc1nnc(NC(=O)NCc2ccnc(N(C)C)c2)s1 | Wolbachia pipientis | 99.1 |
| N#Cc1cc(NS(=O)(=O)CC2CCCCO2)ccc1F (stereo unspecified) | Wolbachia pipientis | -2.711 |
| NS(=O)(=O)CCCC(=O)N1CCC2(CC1)c1ccccc1CC2O (stereo unspecified) | Wolbachia pipientis | -16.64 |
| CC(C)Cc1cc(C(=O)N2CCC(Cc3cnn(C)c3)C2)cc(O)n1 (stereo unspecified) | Wolbachia pipientis | 0.7528 |
| Cc1cc(CN(Cc2ccccc2)C(C)CN2CCOCC2)no1 (stereo unspecified) | Wolbachia pipientis | -1.705 |
| CC(C)c1cc(CNC(=O)N2CCC(Cc3cnn(C)c3)C2)on1 (stereo unspecified) | Wolbachia pipientis | 2.959 |
| COC(=O)NCC(=O)NCC1(c2c(F)cccc2F)CCCC1 | Wolbachia pipientis | 1.826 |
| Cc1nc(NCCSc2ccccn2)c2c(C)noc2n1 | Wolbachia pipientis | 2.263 |
| Cc1cccc(-c2noc(CN3CC(n4cc(C)cn4)C3)n2)c1 | Wolbachia pipientis | 6.599 |
| COc1ccc(Cl)cc1CS(=O)(=O)Cc1nc(C2CC2)no1 | Wolbachia pipientis | 17.46 |
| Cc1cnn(C2CN(Cc3nc(-c4cccnc4)no3)C2)c1 | Wolbachia pipientis | 94.26 |
| NCC1Cc2cc(-c3cnccn3)cc(Cl)c2O1 (stereo unspecified) | Wolbachia pipientis | 3.613 |
| Cc1nccc(-c2ccccc2)c1C(=O)N1CCC2(CCCO2)CC1 | Wolbachia pipientis | -10.01 |
| Cc1ccc(-c2noc(CN3CC(n4cc(C)cn4)C3)n2)cc1 | Wolbachia pipientis | 109 |
| COC[C@]1(O)CCN(C(=O)c2ccc(CN(C)C)o2)CC1(C)C | Wolbachia pipientis | -8.345 |
| CCCS(=O)(=O)N1C[C@@H]2CN(Cc3cnn(C)c3)CCO[C@@H]2C1.O=C(O)C(F)(F)F | Wolbachia pipientis | -20.93 |
| Cc1cnn(C2CN(Cc3nc(C(C)(C)C)no3)C2)c1 | Wolbachia pipientis | -1.752 |
| CN(C)c1cc2c(nn1)CCN(C(=O)Cc1noc3ccccc13)C2 | Wolbachia pipientis | 12.15 |
| c1ccc(-c2n[nH]c(CCNc3nnc(C4CCC4)o3)n2)cc1 | Wolbachia pipientis | -23.29 |
| Cc1ccccc1-c1noc(CN2CC(n3cccn3)C2)n1 | Wolbachia pipientis | 17.98 |
| CNC(=O)c1cccc(CNC2CCSc3c(Cl)cccc32)c1 (stereo unspecified) | Wolbachia pipientis | -5.902 |
| COc1cc(CNC(=O)Nc2nnc(C(C)C)s2)ccn1 | Wolbachia pipientis | 139 |
| CO[C@@H]1CCN(S(=O)(=O)c2cccs2)[C@H]1Cc1ccccc1 | Wolbachia pipientis | 7.736 |
| CN(C)c1cc(CNC(=O)Nc2nnc(C3CC3)s2)ccn1 | Wolbachia pipientis | 137.2 |
| CCOc1ncccc1CNC(=O)c1csc(Br)c1 | Wolbachia pipientis | -22.46 |

----------
# System: Wolbachia pipientis
# Procedure text: Anti-Wolbachia Cell-Based Screen
# Assay type: functional
# Parameters: scale not given: in the data most compounds retested in dose-response had high values
# Experimental conditions: 5 µM
Screen size: about 48,000 compounds; about 13,000 (27%) showed an effect of 50% or more. The list shows a part of the results.

| Molecule | Percent Effect |
| --- | --- |
| COC(=O)C1CCN(c2cncc(-n3nc(C)cc3C)n2)CC1 | -8.177% |
| CC(C)(C)C(=O)N1C[C@@H](F)[C@@H](OCc2nc3ccccc3o2)C1 | -2.26% |
| Cc1ncsc1CN1CCOC(C)(C(=O)N2CCOCC2)C1 (configuration not stated) | 106.3% |
| Cc1cc(N2CCN(c3ccc(=O)[nH]n3)CC2)nc(-c2ccncc2)n1 | 110.1% |
| O=C(O)C(F)(F)F.O=C(O)C(F)(F)F.c1cncc(CN2Cc3nccn3CC(Cn3cccn3)C2)c1 (configuration not stated) | 90.07% |
| O=S(=O)(NCCn1ccc(-c2ccncc2)n1)C1CC1 | -3.151% |
| CCc1ccc(CN2Cc3nccn3CC(Cn3cncn3)C2)o1.O=C(O)C(F)(F)F (configuration not stated) | 101.6% |
| CCc1nc(C)c(C(=O)N2CCNCC2C(=O)NCc2ccncc2)o1 (configuration not stated) | -5.393% |
| Cc1nc(C)n(CC2CN(Cc3ccncc3)Cc3nccn3C2)n1.O=C(O)C(F)(F)F.O=C(O)C(F)(F)F (configuration not stated) | -4.303% |
| O=C(NCCN1CCOCC1)c1cc(-c2ccccc2Cl)[nH]n1 | 0.5934% |
| O=C(c1c(F)cccc1Br)N1CCCOCC1 | -0.116% |
| Cc1nc(C)n(CC2CN(Cc3cccnc3)Cc3nccn3C2)n1.O=C(O)C(F)(F)F.O=C(O)C(F)(F)F (configuration not stated) | 6.866% |
| Cc1cc(-c2nccs2)nc(C2CCN(Cc3ccc(F)cc3)CC2)n1.Cl | 104.7% |
| O=C(c1cccn2ccnc12)N1CCCN(c2cccnn2)CC1 | -3.729% |
| CCOc1ncccc1C(=O)Nc1c(C)cnn1CC1CC1 | 12.64% |
| Cc1ncsc1CN1CC[C@H]2OCC[C@@]2(C(=O)N(C)C)C1 | 3.882% |
| O=S(=O)(NCCn1ccc(-c2ccccn2)n1)C1CC1 | -6.765% |
| Cc1ncsc1CN1CCOC(C)(C(N)=O)C1 (configuration not stated) | 122.3% |
| Cc1c(Cl)cc(C(=O)N(CCO)Cc2nccn2C)cc1Cl | -0.9396% |
| O=C(CC1CCCC1)NCCn1ccc(-c2ccccn2)n1 | -10.47% |
| NCc1cccc(-c2cccnc2C(=O)NCCN2CCOCC2)c1 | 178.8% |
| CC(=O)NCCNc1nc(-c2ccccn2)nc2c1c(C)nn2C | -13.51% |
| CC(=O)N1[C@H](Cn2cncn2)C[C@@H]2CN(Cc3cccnc3)CC[C@@H]21.O=C(O)C(F)(F)F.O=C(O)C(F)(F)F | -6.622% |
| Cc1nc(CCN(C)C(=O)CN2C(=O)OC[C@@H]2c2ccccc2)no1 | 2.107% |
| COCCn1ccnc1C1CCN(C(=O)c2cccc(COC)n2)CC1 | -13.9% |
| COC(=O)C1CCN(c2cc(C)nc(-c3ccncc3)n2)CC1 | 111% |
| COCC(NC(=O)NCc1sc(C)nc1C)c1ccco1 (configuration not stated) | -12.64% |

----------
# Test system: Wolbachia pipientis
# Procedure text: Anti-Wolbachia Cell-Based Screen
# Format: functional
# Parameters: scale not given: in the data most compounds retested in dose-response had high values
# Experimental conditions: 5 µM
Screen size: about 48,000 compounds; about 13,000 (27%) showed an effect of 50% or more. This is one part of the list.
# Percent Effect listing for each entry below
Property: Percent Effect (%)

| Compound | Property | Observed result |
| --- | --- | --- |
| CN(C)[C@H]1CCN(c2ccnc(C(=O)NCc3ccco3)c2)C1 | Percent Effect | -12.58 |
| CCc1ccc(CN2C[C@@H]3OCCN(c4ccnc(N(C)C)n4)[C@@H]3C2)o1.O=C(O)C(F)(F)F | Percent Effect | 11.89 |
| CN(C)c1nccc(N2CCO[C@H]3CN(Cc4nccn4C)C[C@H]32)n1.O=C(O)C(F)(F)F | Percent Effect | 90.41 |
| CC(NC(=O)CCCOc1ccccc1)c1nnc2n1CCCCC2 (configuration not stated) | Percent Effect | -1.101 |
| O=S(=O)(N1CCC(n2cccc2)CC1)N1CCCC1c1ccco1 (configuration not stated) | Percent Effect | -32.64 |
| CC(NC(=O)COc1ccc(F)cc1)c1nnc2n1CCCCC2 (configuration not stated) | Percent Effect | -2.87 |
| C[C@@H]1CN(S(=O)(=O)c2ccc(F)cc2Cl)C[C@]1(C)O | Percent Effect | 2.252 |
| CCc1c(C(=O)N2CCN(C)[C@@H]3CS(=O)(=O)C[C@@H]32)[nH]c2ccccc12 | Percent Effect | -4.01 |
| Cc1noc([C@@H]2C[C@H](NC(=O)NC(C)C)CN2C)n1 | Percent Effect | -7.021 |
| COC1CCN(S(=O)(=O)N2CCC3(CCCNC3=O)C2)CC1 (configuration not stated) | Percent Effect | 4.322 |
| CC(C)c1nc(C2CCCN2CC(=O)Nc2ccc(Cl)cn2)no1 (configuration not stated) | Percent Effect | -4.076 |
| COC1CCN(S(=O)(=O)N2CCCC2c2ccco2)CC1 (configuration not stated) | Percent Effect | -19.32 |
